condition.summary: not told
endpoint: Perme. (cell permeability) (×10⁻⁶ cm/s)

molecule=O=C(Nc1ccc(C(F)(F)F)cc1Cl)c1cc(Cl)ccc1O value_observed=0.27
molecule=O=C(Nc1ccc([N+](=O)[O-])cc1Cl)c1cccc([N+](=O)[O-])c1O value_observed=1.3
molecule="O=C(NC(Cc1ccccc1)C(=O)Nc1ccc([N+](=O)[O-])cc1Cl)c1cc(Cl)ccc1O (stereo not shown)" value_observed=0.25
molecule=O=C(Nc1cc(F)cc(C(F)(F)F)c1)c1cccc([N+](=O)[O-])c1O value_observed=2.9

----------
method.notes: WST-8 cell proliferation cytotoxicity assay
Assay type: cell-based, human
condition.summary: human; A549 cells; read-out: CC50 (A549)
endpoint: CC50 (µM)

chemical_string=CC[C@H](N)COc1ccc(Cl)cc1C(=O)Nc1ccc([N+](=O)[O-])cc1Cl endpoint=CC50 value_observed=30.1
chemical_string=NCCCCOc1ccc(Cl)cc1C(=O)Nc1ccc([N+](=O)[O-])cc1Cl endpoint=CC50 value_observed=28.4
chemical_string=Nc1ccc(NC(=O)c2cc(Cl)ccc2O)c(Cl)c1 endpoint=CC50 value_observed=176
chemical_string=O=C(Nc1ccc2c(c1)S(=O)(=O)C=C2)c1cc(Cl)ccc1O endpoint=CC50 value_observed=241
chemical_string=NCCCOc1ccc(Cl)cc1C(=O)Nc1ccc([N+](=O)[O-])cc1Cl endpoint=CC50 value_observed=17.7
